tested on: E. coli UTI89 K1 capsule, phage lysis, A600; test: blocking phage-mediated lysis of K1 E. coli – UTI89 strain, A600 absorbance, round 2, bacterial capsule biogenesis project, confirmation (AID 602408)
measuredProperty: IC50

[
  {
    "entrySmiles": "CCCc1ccc(-c2cc(NC(=O)c3ccc(Br)o3)c(C(=O)O)s2)cc1",
    "IC50": "1.43 µM"
  }
]

Answer for every listed entry: what is its IC50? The entries follow.
1. O=C(O)c1sc(-c2ccc(OCCC(F)(F)F)cc2)cc1NC(=O)c1c(F)cccc1F
2. CCOc1ccc(-c2cc(NC(=O)c3cccc(F)c3)c(C(=O)O)s2)cc1
3. O=C(Nc1cc(-c2ccccc2)sc1C(=O)O)c1ccc2c(c1)OCCO2
4. O=C(Nc1cc(-c2ccccc2)sc1C(=O)O)c1ccc(Br)o1
5. [N-]=[N+]=NCCOc1ccc(-c2cc(NC(=O)c3c(F)cccc3F)c(C(=O)O)s2)cc1
6. O=C(O)c1sc(-c2ccc(OCC(F)(F)F)cc2)cc1NC(=O)c1c(F)cc(F)cc1F
7. O=C(O)c1sc(-c2ccc(C(F)(F)F)cc2)cc1NC(=O)c1c(F)cccc1F
8. CCOc1ccc(-c2cc(NC(=O)c3ccc(OC)c(OC)c3)c(C(=O)O)s2)cc1

1: 0.84 µM; 2: 20.1 µM; 3: 89.1 µM; 4: 42.2 µM; 5: 17.5 µM; 6: 94.9 µM; 7: 20.9 µM; 8: 59.9 µM

`CC(C)c1ccc(-c2cc(NC(=O)c3c(F)cccc3F)c(C(=O)O)s2)cc1` has a reported IC50 of 5.88 µM

Every entry's value here was drawn from PubChem BioAssay AID602408.
